- experiment-description: Human HepG2 cell viability assay in 384 well format
- Assay type: toxicity, cell-based
- Set-up: dose 125 nL, time 70.5 hour; concentration not given beside the values
- experimental-context: HepG2 cells, read-out: Inhibition
Entries annotated with measured cytotoxicity at 70.5 h
Value expressed in %; do not type the unit.

compound: COc1ccccc1CC1CCCN(CCC#N)C1 (stereo not drawn)
cytotoxicity at 70.5 h [%]: -13.9

Can you look up the measured cytotoxicity at 70.5 h of `Cc1nc(-c2cc(C(=O)O)co2)cs1` for me?
-9.39

Can you look up the measured cytotoxicity at 70.5 h of `Cc1ncnc2c1CCN(C(=O)c1cccc(F)c1)CC2` for me?
-5.99

Can you look up the measured cytotoxicity at 70.5 h of `O=C(CC1CC1)N1CCCn2nnc(CNc3ncccn3)c2C1` for me?
-1.8

----------
Entries annotated with measured cytotoxicity at 70.5 h
- experiment-description: Human HepG2 cell viability assay in 384 well format
- Type: toxicity, cell-based
- Set-up: dose 125 nL, time 70.5 hour; concentration not given beside the values
- experimental-context: HepG2 cells, read-out: Inhibition
Value expressed in %; do not type the unit.

compound: CN1CC(=O)N(C2CCNCC2)Cc2c(NCC(C)(C)C)ncnc21
cytotoxicity at 70.5 h / %: -9.73
--
compound: FC(F)Sc1ccc(NCc2nnc(C3CC3)o2)cc1
cytotoxicity at 70.5 h / %: -4.17
--
compound: c1csc(CN2CCc3onc(Cn4cccc4)c3C2)c1
cytotoxicity at 70.5 h / %: 2.81

Can you look up the measured cytotoxicity at 70.5 h of COc1ccc(CN(C(=O)C2CCCO2)c2ccncc2)cc1 (stereo unspecified) for me?
-8.37

Can you look up the measured cytotoxicity at 70.5 h of CCC(C)C(=O)N(Cc1ccccn1)C1CC1 (stereo unspecified) for me?
25.9

Can you look up the measured cytotoxicity at 70.5 h of `CC(C)CN1CCN(C(=O)NCc2cccnc2-n2cccn2)CC1` for me?
3.85

----------
Entries annotated with measured cytotoxicity at 70.5 h
- experiment-description: Human HepG2 cell viability assay in 384 well format
- Type: toxicity, cell-based
- Design: dose 125 nL, time 70.5 hour; concentration not given beside the values
- experimental-context: HepG2 cells, read-out: Inhibition
Value expressed in %; do not type the unit.

molecule: CC(C)(C)n1nc(C(=O)NCC2(C(N)=O)CCOCC2)cc1C1CC1
cytotoxicity at 70.5 h [%]: -22.5
//
molecule: Cn1ncc2c1NC(=O)CC2c1c(F)cccc1Cl (centres undefined)
cytotoxicity at 70.5 h [%]: -5.11
//
molecule: COCC(=O)N1CCC(Cc2nccnc2-c2c(C)n[nH]c2C)C1 (centres undefined)
cytotoxicity at 70.5 h [%]: 12.4
//
molecule: CC(=O)N1CC[C@H]2N(C)CC[C@@]2(C(=O)Nc2cccnc2)CC1
cytotoxicity at 70.5 h [%]: -8.43
//
molecule: Cc1cc(C(=O)Nc2n[nH]c(C3CC3)n2)c2c(C)nn(C)c2n1
cytotoxicity at 70.5 h [%]: 25.6

Can you look up the measured cytotoxicity at 70.5 h of O=C(c1cccc2cc[nH]c12)N1CCC2(CCOC2)C1 (centres undefined) for me?
1.91

Can you look up the measured cytotoxicity at 70.5 h of `CN1CCCN(C(=O)c2csc(-c3ccc(C(F)(F)F)cc3)n2)CC1` for me?
-7.23

Can you look up the measured cytotoxicity at 70.5 h of CN1C(=O)C(c2ccccc2)CC12CCN(CCN1CCCC1=O)CC2 (centres undefined) for me?
12.2

Can you look up the measured cytotoxicity at 70.5 h of `Cc1nc(N2C[C@H]3CNC[C@H]3C2)c2sccc2n1` for me?
5.86

Can you look up the measured cytotoxicity at 70.5 h of `O=C(NCCn1ccnc1)c1cc(F)cc(Br)c1` for me?
-8.01

Data credit: ChEMBL document CHEMBL3507680
